Catalogue of Ret readings, one per entry.
Organism: Rattus norvegicus
ASSAY OVERVIEW: Open TG-GATES - Regimen: Single
Type: toxicity, organism-based, Sprague-Dawley
Design: regimen Single, gender Male, age 6 weeks
MEASUREMENT PARAMETERS: in vivo, po, 10 mg/kg, 3 h, tissue Blood, route gavage, dose level Low
Report the value in % with no unit label.

CN(C)CCCN1c2ccccc2CCc2ccccc21 [IMIPRAMINE] ... 8.6
CC(C)OC(=O)C(C)(C)Oc1ccc(C(=O)c2ccc(Cl)cc2)cc1 [FENOFIBRATE] ... 10.2
CC1=C(/C=C/C(C)=C/C=C/C(C)=C/CO)C(C)(C)CCC1 [RETINOL] ... 8.8

Could you share which Ret value was measured for `CN(C)CCN(Cc1cccs1)c1ccccn1` ? 7.5

Could you share which Ret value was measured for CN(C)CCCN1c2ccccc2CCc2ccc(Cl)cc21 [CLOMIPRAMINE] ? 7.8

====

Catalogue of Hb readings, one per entry.
Species on record: Rattus norvegicus
ASSAY OVERVIEW: Open TG-GATES - Regimen: Single
Assay type: toxicity, organism-based, Sprague-Dawley
Set-up: regimen Single, gender Male, age 6 weeks
MEASUREMENT PARAMETERS: in vivo, po, 0 mg/kg, 3 h, tissue Blood, route gavage, dose level Control
Returns: string containing the number followed by the unit.

Example compounds with recorded Hb:
COc1ccc2[nH]c([S+]([O-])Cc3ncc(C)c(OC)c3C)nc2c1 (stereo unspecified) ... 13 g/dL
CCOc1ccc(NC(=O)CC(C)O)cc1 (stereo unspecified) ... 12.7 g/dL
CN(C)CCN(Cc1cccs1)c1ccccn1 ... 13.1 g/dL
COc1cc2c(c(OC)c1OC)-c1ccc(OC)c(=O)cc1[C@@H](NC(C)=O)CC2 ... 13.1 g/dL
NNC(=O)c1ccncc1 ... 13.5 g/dL

Could you share which Hb value was measured for `CN(C)CCCN1c2ccccc2CCc2ccc(Cl)cc21` ? 13.8 g/dL

Could you share which Hb value was measured for `C[C@@H]1C[C@H]2[C@@H]3CCC4=CC(=O)C=C[C@]4(C)[C@@]3(F)[C@@H](O)C[C@]2(C)[C@@]1(O)C(=O)CO` ? 13 g/dL

Could you share which Hb value was measured for `CC/C(=C(\c1ccccc1)c1ccc(OCCN(C)C)cc1)c1ccccc1` ? 13 g/dL

Could you share which Hb value was measured for `O=C(CCCN1CCC(O)(c2ccc(Cl)cc2)CC1)c1ccc(F)cc1` ? 13.4 g/dL

Could you share which Hb value was measured for CCOC(=O)CCC(=O)O[C@H]1[C@H](O[C@@H]2[C@@H](C)[C@H](O[C@H]3C[C@@](C)(OC)[C@@H](O)[C@H](C)O3)[C@@H](C)C(=O)O[C@H](CC)[C@@](C)(O)[C@H](O)[C@@H](C)C(=O)[C@H](C)C[C@@]2(C)O)O[C@H](C)C[C@@H]1N(C)C [ERYTHROMYCIN ETHYLSUCCINATE] ? 13.2 g/dL

Could you share which Hb value was measured for `COC1=CC(=O)C[C@@H](C)[C@]12Oc1c(Cl)c(OC)cc(OC)c1C2=O` ? 13.4 g/dL

====

Species on record: Rattus norvegicus
ASSAY OVERVIEW: Open TG-GATES - Regimen: Single
Type: toxicity, organism-based, Sprague-Dawley
Set-up: regimen Single, gender Male, age 6 weeks
MEASUREMENT PARAMETERS: in vivo, po, 1000 mg/kg, 24 h, tissue Blood, route gavage, dose level High
Ret strictly less than 6% = yes. Otherwise no.

Reference set (4 entries):
NC(N)=Nc1nc(CSCCC(N)=NS(N)(=O)=O)cs1 ... yes
CCOC(=O)CCC(=O)O[C@H]1[C@H](O[C@@H]2[C@@H](C)[C@H](O[C@H]3C[C@@](C)(OC)[C@@H](O)[C@H](C)O3)[C@@H](C)C(=O)O[C@H](CC)[C@@](C)(O)[C@H](O)[C@@H](C)C(=O)[C@H](C)C[C@@]2(C)O)O[C@H](C)C[C@@H]1N(C)C [ERYTHROMYCIN ETHYLSUCCINATE] ... no
COC1=CC(=O)C[C@@H](C)[C@]12Oc1c(Cl)c(OC)cc(OC)c1C2=O ... no
COc1ccc2[nH]c([S+]([O-])Cc3ncc(C)c(OC)c3C)nc2c1 (stereo not given) ... no

Turning to the following compound.
Would you kindly verify if Ret of CC(C)OC(=O)C(C)(C)Oc1ccc(C(=O)c2ccc(Cl)cc2)cc1 [FENOFIBRATE] is strictly less than 6%? no
